Reference source: patent US12702715B2

# system: pre-miR-21's A-bulge (Dicer processing site in pre-miR-21)
# protocol: Fluorescent binding affinity measurement, A-bulge RNA
assay readout: pKd
Reminder that pKd means the negative base-10 logarithm of the concentration expressed in mol/L.

**Query** What value of pKd has been recorded for this entry: CN1CCN(c2ccc3nc(-c4c(N)c5c(F)cccc5[nH]c4=O)[nH]c3c2)CC1 [Compound 1, Dovitinib, reference compound]
**Result** 5.52

----------
# protocol: Quantitation of 1 and 2 in mouse plasma and tissue
# Format: in vivo
# test context: male, C57BL/6, mouse, lung, ip, 56 mg/kg; intraperitoneal injection; read-out: drug exposure in the lung
assay readout: concentration at 48 h (nM)
// return numeric value only (unit: nM, not printed)

**Query** What value of concentration at 48 h has been recorded for this entry: CCOC(=O)C1=C(Nc2ccccc2)S/C(=C\c2ccc(OCCOCCOCCOCCNC(=O)NCCN3CCN(c4ccc5[nH]c(-c6c(N)c7c(F)cccc7[nH]c6=O)nc5c4)CC3)c(O)c2)C1=O [Compound 2, Ribotac-Dovitinib]
**Result** 1000
